Listed below: thermal stability score values for each entry.
Tested on: HeLa Kyoto
Protocol text: thermal stability score vs G1/S (z-score of summed log2 fold changes over temperatures); higher = more thermally stable than in G1/S
Condition label: cell cycle stage: early G1 (4.5 h after nocodazole release)

Record sequence	thermal stability score
MAVFADLDLRAGSDLKALRGLVETAAHLGYSVVAINHIVDFKEKKQEIEKPVAVSELFTTLPIVQGKSRPIKILTRLTIIVSDPSHCNVLRATSSRARLYDVVAVFPKTEKLFHIACTHLDVDLVCITVTEKLPFYFKRPPINVAIDRGLAFELVYSPAIKDSTMRRYTISSALNLMQICKGKNVIISSAAERPLEIRGPYDVANLGLLFGLSESDAKAAVSTNCRAALLHGETRKTAFGIISTVKKPRPSEGDEDCLPASKKAKCEG [RPP30]	-0.0475
MKLYSLSVLYKGEAKVVLLKAAYDVSSFSFFQRSSVQEFMTFTSQLIVERSSKGTRASVKEQDYLCHVYVRNDSLAGVVIADNEYPSRVAFTLLEKVLDEFSKQVDRIDWPVGSPATIHYPALDGHLSRYQNPREADPMTKVQAELDETKIILHNTMESLLERGEKLDDLVSKSEVLGTQSKAFYKTARKQNSCCAIM [YKT6]	0.334
MAGENFATPFHGHVGRGAFSDVYEPAEDTFLLLDALEAAAAELAGVEICLEVGSGSGVVSAFLASMIGPQALYMCTDINPEAAACTLETARCNKVHIQPVITDLVKGLLPRLTEKVDLLVFNPPYVVTPPQEVGSHGIEAAWAGGRNGREVMDRFFPLVPDLLSPRGLFYLVTIKENNPEEILKIMKTKGLQGTTALSRQAGQETLSVLKFTKS [N6AMT1]	0.341

----------
Listed below: thermal stability score values for each entry.
Test system: HeLa Kyoto;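 also: synchronized HeLa Kyoto cells, proteins quantified by TMT10plex mass spectrometry, three biological replicates, mitosis taken 0.5 h after nocodazole release, G1/S directly after double thymidine block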
Protocol text: thermal stability score vs G1/S (z-score of summed log2 fold changes over temperatures); higher = more thermally stable than in G1/S
Condition label: cell cycle stage: mitosis
Measured endpoint: thermal stability score

Record sequence	Measured endpoint	Numeric readout
MSDIGDWFRSIPAITRYWFAATVAVPLVGKLGLISPAYLFLWPEAFLYRFQIWRPITATFYFPVGPGTGFLYLVNLYFLYQYSTRLETGAFDGRPADYLFMLLFNWICIVITGLAMDMQLLMIPLIMSVLYVWAQLNRDMIVSFWFGTRFKACYLPWVILGFNYIIGGSVINELIGNLVGHLYFFLMFRYPMDLGGRNFLSTPQFLYRWLPSRRGGVSGFGVPPASMRRAADQNGGGGRHNWGQGFRLGDQ [DERL1]	thermal stability score	-0.882
MGRTSKDKRDVYYRLAKENGWRARSAFKLLQLDKEFQLFQGVTRAVDLCAAPGSWSQVLSQKIGGQGSGHVVAVDLQAMAPLPGVVQIQGDITQLSTAKEIIQHFKGCPADLVVCDGAPDVTGLHDVDEYMQAQLLLAALNIATHVLKPGGCFVAKIFRGRDVTLLYSQLQVFFSSVLCAKPRSSRNSSIEAFAVCQGYDPPEGFIPDLSKPLLDHSYDPDFNQLDGPTRIIVPFVTCGDLSSYDSDRSYPLDLEGGSEYKYTPPTQPPISPPYQEACTLKRKGQLAKEIRPQDCPISRVDTFPQPLAAPQCHTLLAPEMEDNEMSCSP [FTSJ1]	thermal stability score	-0.299
MFFWCACCLMVAWRVSASDAEHCPELPPVDNSIFVAKEVEGQILGTYVCIKGYHLVGKKTLFCNASKEWDNTTTECRLGHCPDPVLVNGEFSSSGPVNVSDKITFMCNDHYILKGSNRSQCLEDHTWAPPFPICKSRDCDPPGNPVHGYFEGNNFTLGSTISYYCEDRYYLVGVQEQQCVDGEWSSALPVCKLIQEAPKPECEKALLAFQESKNLCEAMENFMQQLKESGMTMEELKYSLELKKAELKAKLL [C4BPB]	thermal stability score	5.56
